# PROTOCOL_DETAILS: NCI Yeast Anticancer Drug Screen. Data for the mec2-1 strain (AID 157)
# MEASUREMENT_CONDITIONS: S. cerevisiae mec2-1 strain, at 1.2 µM, hits give high values
The panel holds about 79,000 compounds, 15% with a hit somewhere; the sample as a whole holds those more often.
Known growth inhibition of a selection of compounds
Write the value in % as a bare number.

                        compound  units  value_measured
0  CNc1ccc(Cc2c[nH]c3ccccc23)cc1      %             -28

Prompt: Let me know recorded growth inhibition for O=C1CSC(=S)N1Cc1ccc(Cl)cc1Cl , thanks.
Completion: 1

Prompt: Fill in growth inhibition for record Cc1ccc(I)cc1N=C=S
Completion: -4

Prompt: Answer with the recorded growth inhibition of Cc1ccc(N=Nc2ccc(O)c(C)c2)cc1 only.
Completion: 10

Prompt: Item COC(=O)CSc1nnc(CSc2ccc(Cl)cc2)n1-c1ccccc1 : provide growth inhibition
Completion: -3

Prompt: Find the measured growth inhibition of CC(=O)C1=C(O)C2(C)c3c(O)c(C)c(O)c(C(C)=O)c3OC2(Sc2ccccc2)CC1=O (stereo not drawn) and report it.
Completion: 4

Prompt: Respond only with growth inhibition recorded for COc1ccc(N=N/C(=N\NC(=O)c2cc(Br)ccc2O)c2ccc(N(CCC#N)CCC#N)cc2OC)cc1
Completion: -4

Prompt: Indicate its recorded growth inhibition; the compound in question is O=[N+]([O-])c1c(/C=N/Nc2ccccc2)oc(-c2ccc3c(c2)OCO3)c1-c1ccc2c(c1)OCO2
Completion: 0

Prompt: Output measured growth inhibition for this item: Nc1nc(N)c2c(n1)CCC(S(=O)(=O)c1ccc3ccccc3c1)C2 (stereo not drawn)
Completion: 14

Prompt: Hello, please tell me recorded growth inhibition for this one: CCCCCCCCCCCCCCCCNC(=O)/C(=C\c1ccc(Cl)c(Cl)c1)NC(=O)c1ccccc1
Completion: 11

Prompt: Specify reported growth inhibition for the compound shown: C(=N/NC1=NCCN1)/c1c2ccccc2c(/C=N\NC2=NCCN2)c2ccccc12
Completion: 6

Prompt: Name the recorded growth inhibition of the item Oc1ccc(Br)cc1C=NC1CCCCC1 in your answer.
Completion: -24

Prompt: Specify growth inhibition for O=NN(CCCl)C(=O)NCCCl and stop.
Completion: -2

Prompt: State its growth inhibition: CCCCC(CC)C(=O)Oc1ccc(C(=O)c2ccccc2)c(O)c1 (stereo not drawn)
Completion: 10

Prompt: Report growth inhibition for Clc1cc(-c2ccccc2)nc2ccccc12
Completion: -18

Prompt: Return reported growth inhibition. Input compound: CC1(C)C(C=O)=CCC1CC(N)=O (stereo not drawn)
Completion: 0

Prompt: Dear colleague, please send me the reported growth inhibition for Cc1cccc(/C=N/NC(=S)N(C)CCc2ccccn2)n1 when you can.
Completion: 94

###

growth inhibition values by entry
# PROTOCOL_DETAILS: NCI Yeast Anticancer Drug Screen. Data for the wt2 strain (AID 169);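 further: 0% = growth of vehicle-treated yeast cultures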
# MEASUREMENT_CONDITIONS: S. cerevisiae wt2 strain growth inhibition; at 3.7 µM; hits give high values
# Method: Growth inhibition of yeast strains with defined genetic alterations is measured as a screen for potential anti-cancer activity. Selected strains with alterations in DNA damage repair or cell cycle control were exposed to compounds and growth inhibition was measured relative to vehicle treated controls. The strain used in this assay is wt2
The panel holds about 79,000 compounds, 15% with a hit somewhere; the sample as a whole holds those more often.
Hi! Could you send only the number? It should be in %, unit omitted.

Example molecules with recorded growth inhibition:
MOLECULE	PROPERTY_MEASURED	UNITS	VALUE_MEASURED
S=c1[nH]c2c(Cl)c(Cl)c(Cl)c(Cl)c2[nH]1	growth inhibition	%	-3
N#C/C(=C1C=C/C(=N/O)c2ccccc2/1)c1ccccc1	growth inhibition	%	-5

Prompt: Supply growth inhibition value. Item: CCN(CC)CC(O)c1cc(-c2ccc(Cl)cc2)nc2c(-c3ccccc3)cccc12 (stereo unspecified)
Completion: -4

Prompt: Please report growth inhibition for the following molecule: COC(=O)c1ccc2c(c1)Cc1ccccc1-2
Completion: -2

Prompt: Fill in reported growth inhibition for this entry: COc1ccc(S(=O)(=O)N/N=C\c2cc([N+](=O)[O-])cc(I)c2O)c(OC)c1OC
Completion: -7

Where do these numbers come from? They come from PubChem BioAssay (NCI).
